test_system: Recombinant human KIF18A (1-467 His-tagged) protein (Homo sapiens, UniProt Q8NI77)
Construct: Recombinant human KIF18A (1-467 His-tagged) protein; His
Sequence (Q8NI77 1-467): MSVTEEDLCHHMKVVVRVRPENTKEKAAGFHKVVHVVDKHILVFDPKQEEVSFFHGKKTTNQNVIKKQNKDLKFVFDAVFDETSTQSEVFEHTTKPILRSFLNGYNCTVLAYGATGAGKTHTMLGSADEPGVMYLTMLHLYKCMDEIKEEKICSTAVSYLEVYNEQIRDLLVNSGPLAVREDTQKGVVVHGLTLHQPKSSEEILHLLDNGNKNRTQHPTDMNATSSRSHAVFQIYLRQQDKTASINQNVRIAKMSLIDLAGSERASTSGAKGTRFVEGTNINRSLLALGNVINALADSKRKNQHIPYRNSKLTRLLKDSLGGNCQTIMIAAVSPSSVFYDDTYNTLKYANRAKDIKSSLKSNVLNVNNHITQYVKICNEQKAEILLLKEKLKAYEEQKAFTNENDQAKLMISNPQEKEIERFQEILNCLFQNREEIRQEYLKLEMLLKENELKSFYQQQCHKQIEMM
Sequence (P02550 whole entry partner): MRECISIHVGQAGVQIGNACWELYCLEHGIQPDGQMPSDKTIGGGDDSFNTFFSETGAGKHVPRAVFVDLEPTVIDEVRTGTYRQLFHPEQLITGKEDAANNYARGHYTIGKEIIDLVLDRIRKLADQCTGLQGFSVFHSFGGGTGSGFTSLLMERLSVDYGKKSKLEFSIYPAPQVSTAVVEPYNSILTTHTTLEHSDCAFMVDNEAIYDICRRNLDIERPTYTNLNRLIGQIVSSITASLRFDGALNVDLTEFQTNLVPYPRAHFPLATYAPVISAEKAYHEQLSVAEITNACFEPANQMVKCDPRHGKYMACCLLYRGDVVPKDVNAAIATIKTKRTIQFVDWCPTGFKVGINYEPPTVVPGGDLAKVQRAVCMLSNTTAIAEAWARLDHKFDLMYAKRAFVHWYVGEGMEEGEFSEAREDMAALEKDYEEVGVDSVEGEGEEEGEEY
Sequence (P02554 whole entry partner): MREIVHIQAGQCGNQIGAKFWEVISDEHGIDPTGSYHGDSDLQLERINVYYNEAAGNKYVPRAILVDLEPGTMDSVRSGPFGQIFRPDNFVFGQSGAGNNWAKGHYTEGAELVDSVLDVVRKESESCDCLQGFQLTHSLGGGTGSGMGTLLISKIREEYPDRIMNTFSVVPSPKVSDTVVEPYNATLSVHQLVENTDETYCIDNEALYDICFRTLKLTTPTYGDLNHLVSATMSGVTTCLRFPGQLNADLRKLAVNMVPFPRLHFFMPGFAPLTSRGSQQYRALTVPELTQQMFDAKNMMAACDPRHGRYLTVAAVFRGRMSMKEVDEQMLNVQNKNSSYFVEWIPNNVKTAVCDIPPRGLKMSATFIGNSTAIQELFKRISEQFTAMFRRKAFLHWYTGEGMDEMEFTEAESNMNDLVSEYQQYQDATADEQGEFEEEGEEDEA
assay_explanation: KIF18A Enzyme Assay: microtubule-stimulated ATPase activity assay (ADP-Glo)
reported_conditions: KIF18A protein 30 nM, 30 μg/mL pig microtubules, ATP at Km 75 μM, ADP-Glo luminescence, RT
result_type: IC50 (µM)

test_smiles	units_label	observed
CC(C)(C)NS(=O)(=O)c1cccc(NC(=O)c2ccc(S(=O)(=O)NC(C)(C)CO)cc2N2CCC3(CC2)CC3)c1	µM	0.06
Cn1cc(-c2ccc(C(=O)Nc3cccc(S(=O)(=O)NC(C)(C)C)c3)c(N3CCC4(CC3)CC4)c2)cn1	µM	1.09
CS(=O)(=O)c1ccc(C(=O)Nc2cccc(N3CCOCC3)c2)c(N2CCC3(CC2)CC3)c1	µM	0.862
CC(C)(C)NS(=O)(=O)c1cccc(NC(=O)c2ccc(C(=O)NC(C)(C)CO)cc2N2CCC3(CC2)CC3)c1	µM	0.272
